# TARGET_UNDER_TEST: T1, human 5T4-His protein (human, UniProt Q13641 32-355)
# T1 construct: also called recombinant 5T4 protein (human 5T4-his tag); human 5T4 protein; not shown: His tag
# T1 sequence (looked up): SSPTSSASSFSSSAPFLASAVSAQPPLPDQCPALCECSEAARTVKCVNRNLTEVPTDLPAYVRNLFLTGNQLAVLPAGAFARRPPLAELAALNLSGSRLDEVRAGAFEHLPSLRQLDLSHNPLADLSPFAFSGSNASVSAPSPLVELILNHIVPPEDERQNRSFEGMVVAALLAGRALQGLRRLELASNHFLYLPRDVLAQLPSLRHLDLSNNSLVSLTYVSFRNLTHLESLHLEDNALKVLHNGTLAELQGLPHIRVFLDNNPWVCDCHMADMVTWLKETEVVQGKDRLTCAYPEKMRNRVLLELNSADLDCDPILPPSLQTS
# ASSAY_EXPLANATION: SPR Biacore, Protein A capture
# Description: The binding of the 14G12 humanized antibodies to recombinant 5T4 protein (human 5T4-his tag) was tested with Biacore using a capture method. The mAbs were captured using Protein A chip. Serial dilution of human 5T4-his tag protein was injected over captured antibody for 120 s-180 s at a flow rate of 30 μl/min. The antigen was allowed to dissociate for 360 s-1000 s. All the experiments were carried out on a Biacore T200. Data analysis was carried out using the Biacore T200 evaluation software.
Measured kon, listed per entry.
// return numeric value only (unit: M⁻¹ s⁻¹, not printed)

Worked cases, answers included:
Hu14G12-37 (antibody, V domains shown, humanized) VH: QVQLVQSGAEVKKPGASVKVSCKASGYAFSSSWMNWVRQAPGQGLEWMGRIYREDGHTNYNGKFKGRVTMTADKSTTTAYMELSSLRSEDTAVYYCANGGAMDYWGQGTLVTVSS VL: DIQMTQSPSTLSASVGDRVTITCRASQDISNYLNWYQQKPGKAPKLLIYYTSRLHSGVPSRFSGSGSGTEYTLTISSLQPDDIATYFCQQDNTLPWTFGGGTKVEIK : 1.34e+06
Hu14G12-8 (antibody, V domains shown, humanized) VH: EVQLVQSGAEVKKPGATVKISCKVSGYAFSSSWMNWVQQAPGKGLEWIGRIYREDGHTNYNGKFKGRVTITADTSTDTAYMELSSLRSEDTAVYFCANGGAMDYWGQGTLVTVSS VL: DIQMTQSPSSLSASVGDRVTISCRASQDISNYLNWYQQKPGKTVKLLIYYTSRLHSGVPSRFSGSGSGTDYTFTISSLQPEDIATYFCQQDNTLPWTFGGGTKLEIK : 340000

Lab note: next binder to report on.
## Task # get_value(readout='kon', item= Hu14G12-28 (antibody, V domains shown, humanized; also called parental Hu14G12-28 antibody) VH: QVQLVQSGAEVKKPGASVKVSCKASGYAFSSSWMNWVRQAPGQGLEWMGRIYREDGHTNYNGKFKGRVTMTADKSITTAYMELSRLRSDDTAVYYCANGGAMDYWGQGTLVTVSS VL: DIQMTQSPSSLSASVGDRVTITCRASQDISNYLNWYQQKPGKAPKLLIYYTSRLHSGVPSRFSGSGSGTDYTFTISSLQPEDIATYFCQQDNTLPWTFGGGTKVEIK )
## Result 295000

All values here come from patent US20250154277A1.
